System: Alpha-2C adrenergic receptor (Homo sapiens)
Sequence (P18825 whole entry): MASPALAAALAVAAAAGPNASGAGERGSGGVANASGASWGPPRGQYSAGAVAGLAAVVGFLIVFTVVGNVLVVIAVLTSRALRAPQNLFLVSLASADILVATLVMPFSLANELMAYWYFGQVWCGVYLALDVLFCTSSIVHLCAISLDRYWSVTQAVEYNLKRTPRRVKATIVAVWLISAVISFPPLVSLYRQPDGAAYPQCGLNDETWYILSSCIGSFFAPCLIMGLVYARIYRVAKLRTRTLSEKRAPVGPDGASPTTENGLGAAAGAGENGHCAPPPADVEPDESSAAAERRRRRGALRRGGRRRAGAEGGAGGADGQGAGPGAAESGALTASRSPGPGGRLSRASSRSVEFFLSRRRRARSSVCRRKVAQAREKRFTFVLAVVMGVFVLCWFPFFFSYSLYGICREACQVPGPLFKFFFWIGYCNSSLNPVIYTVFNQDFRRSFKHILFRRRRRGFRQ
Protocol text: Displacement of [3H]rauwolscine from human recombinant adrenergic alpha2C receptor expressed in MDCK cell membranes by radioligand binding assay
Measured attribute: Ki

Consider the compound shown here: COc1cc2c(cc1O)C[C@H]1c3c(cc(OC)c(OC)c3-2)CCN1C What is its recorded Ki?
> 950 nM
